- Test summary: Rasagiline citrate salt formation in solvents: extractable free rasagiline base (toluene extraction, TLC), pH, NMR equivalents
- Condition context: free rasagiline base extracted or filtered from the citrate salt solution; solvent and mole proportions per example
Experimental readout: Extracted R-PAI (amount) (g)
Kindly provide the numeric value in g only, without the unit symbol.

C#CCN[C@@H]1CCc2ccccc21.O=C(O)CC(O)(CC(=O)O)C(=O)O [Example 19.7]; 3.92
C#CCN[C@@H]1CCc2ccccc21.O=C(O)CC(O)(CC(=O)O)C(=O)O [Example 19.13]; 2.47
C#CCN[C@@H]1CCc2ccccc21.O=C(O)CC(O)(CC(=O)O)C(=O)O [Example 19.1]; 0.06
C#CCN[C@@H]1CCc2ccccc21.O=C(O)CC(O)(CC(=O)O)C(=O)O [Example 19.4]; 1.51

## Task Can you look up the measured Extracted R-PAI (amount) of C#CCN[C@@H]1CCc2ccccc21.O=C(O)CC(O)(CC(=O)O)C(=O)O [Example 19.6] for me?
## Result 4.44

---

- Test summary: Rasagiline citrate salt formation in solvents: extractable free rasagiline base (toluene extraction, TLC), pH, NMR equivalents
- Condition context: free rasagiline base extracted or filtered from the citrate salt solution; solvent and mole proportions per example
Experimental readout: Extracted R-PAI (%)

C#CCN[C@@H]1CCc2ccccc21.O=C(O)CC(O)(CC(=O)O)C(=O)O [Example 19.1]; 1.75%
C#CCN[C@@H]1CCc2ccccc21.O=C(O)CC(O)(CC(=O)O)C(=O)O [Example 19.4]; (22%)
C#CCN[C@@H]1CCc2ccccc21.O=C(O)CC(O)(CC(=O)O)C(=O)O [Example 19.13]; (48%)
